Entry source: ChEMBL document CHEMBL4831528

- System Tested: NACHT, LRR and PYD domains-containing protein 3 (Mus musculus)
- Protocol: Inhibition of NLRP3 inflammasome activation in LPS-stimulated mouse J774A.1 cells assessed as inhibition of cell pyrolysis at 20 uM incubated for 1 hr followed by ATP addition and measured after 30 mins by Hoechst 33342/propidium iodide staining based high content screening method relative to control
- Particulars: J774.A1, time 1.5 hrs
Below: a set of entries, each annotated with reported inhibition.
Observable: inhibition (%)

>>> quantitative_readout("COCCCOc1ccc(/C=C/c2cc(OC)cc(OC)c2)cc1")
20.2
>>> quantitative_readout("COc1cc(/C=C/c2ccc(OCC(=O)NCc3ccccc3)cc2)c(/C=C/[N+](=O)[O-])c(OC)c1")
57.9
>>> quantitative_readout("COc1cc(/C=C/c2ccc(OCC(=O)Nc3ccc(F)cc3)cc2)c(/C=C/[N+](=O)[O-])c(OC)c1")
49.6
>>> quantitative_readout("COc1cc(/C=C/c2ccc(OCC(=O)NCc3ccc(Cl)cc3)cc2)c(/C=C/[N+](=O)[O-])c(OC)c1")
49.6
>>> quantitative_readout("COCCOc1ccc(/C=C/c2cc(OC)cc(OC)c2)cc1")
32.3
>>> quantitative_readout("COc1cc(/C=C/c2ccc(O)cc2)c(/C=C/[N+](=O)[O-])c(OC)c1")
31.5
>>> quantitative_readout("COc1cc(NC(=O)COc2ccc(/C=C/c3cc(OC)cc(OC)c3/C=C/[N+](=O)[O-])cc2)cc(OC)c1")
39.8
>>> quantitative_readout("COc1ccc(CNC(=O)COc2ccc(/C=C/c3cc(OC)cc(OC)c3/C=C/[N+](=O)[O-])cc2)cc1")
23.1
>>> quantitative_readout("COCCOc1ccc(/C=C/c2cc(OC)cc(OC)c2-c2cnn[nH]2)cc1")
26.9
